Consider the following binders; for each one, report its OD.
Molecular target: CA-IX-His-ECD (his-V5 tagged version of the CA IX protein, extracellular domain) (human, UniProt Q16790 38-414)
Assay: ELISA on CA-IX-His-ECD
One number for each entry, in OD.

Consider the reported OD for these binders:
BINDER | OD (OD)
AB-MN-XG1-051 (antibody, human IgG1, V domains shown, also called MN51; AB-MN-XG1-51) VH: EVQLVEFGGGLVKPGGSLRLSCAASGFTFSSFRMNWVRQAPGEGLEWVSSITSSSSYIYYADSVKGRFTISRDNAKNSLYLQMNSLRAEDTAVYYCARFTAMALDYWGQGTLVTVSS VL: DIQMTQSPSSLSASVGDRVTITCRASQGIFNYLAWYQQKPGKVPKLLIYAASTLQSGVPSRFSGSGSGTDFTLTISSLQPEDVAVYYCLKYNSAPWTFGQGTKVEIK | 2.47
AB-MN-22.12 (antibody, human IgG2, V domains shown, also called AX014H22-12) VH: QVQLQESGPGLVKPSETLSLTCTVSGGSISSYYWSWIRQPPGKGLEWIGYIYSSGSTNYNPSLKSRVTISVDTSKNQFSLKLSSVTAADTAVYYCARDQHSSSFYYYYYGMDVWGQGTTVTVSS VL: DIQMTQSPSSVSASVGDRVTITCRASQGISSWLAWYQQKPGKAPKLLIYAASSLQSGVPSRFSGSGSGTDFTLTISSLQPEDFATYYCQQANSFPLTFGPGTKVDIK | 2.38
AB-MN-XG1-141 (antibody, human IgG1, V domains shown, also called MN141) VH: QVQLQESGPGLVKPSETLSLTCSVSGGSISSYYWSWIRQPPGKGLEWIGYIYYSGSTNYNPSLKSRVTISVDTSNNHFSLKLSSVTAADTAVYYCARDTRTIFGVVSGMDVWGQGTTVTVSS VL: EIVLTQSPGTLSLSPGERATLSCRTSQTVYSTYLAWYQQKPGQAPRLLIYGASSRATGIPDRFSGSGSGTDFTLTISRLEPEDFAVFYCQHYGRSLTFGGGTKVEIK | 2.56
AB-MN-XG1-080 (antibody, human IgG1, V domains shown, also called MN80) VH: QVQLQESGPGLVKPSETLSLTCTVSGGSISSYYWSWIRQPPGKGLEWIGYIYYSGSTNYNPSLKSRVTISVDTSKNQFSLKLSSVTAADTAVYYCARDTRTIFGVVSGMDVWGQGTTVTVSS VL: EIVLTQSPGTLSLSPGERATLSCRASQSVYSSYLAWYQQKPGQAPRLLIYGASSRAPGIPDRFSGSGSGTDFTLTISRLEPEDFAVYYCQHYGRSLTFGGGTKVEIK | 2.71

Field: next binder
Entry under review: AB-MN-22.30 (antibody, human IgG2, V domains shown, also called AX014H22-30) VH: QVQLVESGGGVVQPGRSLRLSCAASGFTFSSYAMHWVRQAPGKGLEWVAVIWYDGSTKYYADSVKGRFTISRDNSKNTLYLQMNSLRAEDTAVYYCARDRGLLWFGELSPHYGMDVWGQGTTVTVSS VL: DIQMTQSPSSLSASVGDRVTITCRASQGIRNDLGWYQQKPGKAPKRLIYAASSLQSGVPSRFSGSGSGTDFTLTISSLQPEDFATYYCLQHYSYPLTFGGGTKVEIK . Reported OD?
2.2
